Test: Cytotoxicity against Homo sapiens (human) […] at 10 uM after 24 hr
Type: cell-based
Settings: cck8, 24 h
MEASURED_PROPERTY: Activity

Known Activity results, listed for orientation:
COc1cc(OC)c(C(=O)c2cccc(Cl)c2)c(O)c1Br; 33%
COc1cc(OC)c(C(=O)c2ccccc2)c(O)c1Br; 38%
COc1cc(OC)c(C(=O)c2ccccc2F)c(O)c1Br; 46%

[Q] Given the entry COc1cc(OC)c(C(=O)c2cccc(C)c2)c(O)c1Br , report its measured Activity.
[A] 32%

[Q] Given the entry COc1cc(OC)c(C(=O)c2ccc(F)cc2)c(O)c1Br , report its measured Activity.
[A] 19%

[Q] Given the entry COc1cc(OC)c(C(=O)c2ccccc2C)c(O)c1Br , report its measured Activity.
[A] 40%

[Q] Given the entry COc1ccc(C(=O)c2c(OC)cc(OC)c(Br)c2O)cc1 , report its measured Activity.
[A] 34%

###

System: THP-1
Test: Anti-inflammatory activity in Homo sapiens (human) PMA-stimulated THP1 cells assessed as inhibition of LPS-induced IL6 production at 10 uM incubated for 30 min prior to LPS-challenge measured after 24 hr by ELISA
Assay type: functional
MEASURED_PROPERTY: inhibition at 10 µM (%)
Please reply with the bare figure in % and do not write the unit itself.

COc1cc(OC)c(C(=O)c2ccccc2F)c(O)c1Br; 76
COc1cc(OC)c(C(=O)c2ccc(F)cc2)c(O)c1Br; 63
COc1cc(OC)c(C(=O)c2ccccc2)c(O)c1Br; 80
COc1cc(OC)c(C(=O)c2cccc(C)c2)c(O)c1Br; 76
COc1ccc(C(=O)c2c(OC)cc(OC)c(Br)c2O)cc1; 82

[Q] Request - read-out inhibition at 10 µM | tested on THP-1 | molecule COc1cc(OC)c(C(=O)c2cccc(Cl)c2)c(O)c1Br
[A] 78

[Q] Request - read-out inhibition at 10 µM | tested on THP-1 | molecule COc1cc(OC)c(C(=O)c2ccccc2C)c(O)c1Br
[A] 70
